- system tested: recombinant HparOBP14 (Holotrichia parallela, UniProt A0A0G2YD86)
- Sequence (A0A0G2YD86 entry or part of it): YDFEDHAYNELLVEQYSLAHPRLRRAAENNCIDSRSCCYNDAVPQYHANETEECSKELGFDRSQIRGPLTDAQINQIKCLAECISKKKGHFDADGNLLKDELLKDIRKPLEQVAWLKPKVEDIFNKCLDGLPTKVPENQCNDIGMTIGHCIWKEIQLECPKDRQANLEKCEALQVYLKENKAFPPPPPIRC
- assay overview: biochemical
measure name: pKd
Worth noting: pKd values are minus log10 of concentrations stated in mol/L.

Asked: Fill in: pKd of c1ccc(Nc2cccc3ccccc23)cc1 [1-NPN, N-phenyl-1-naphthylamine, reference compound] is ___
Given back: 5.24

###

Quick list: IC50 per entry.
- system tested: recombinant HparOBP14 (Holotrichia parallela)
- assay overview: biochemical
- Type: binding

{"molecule": "CCCC(=O)O", "IC50": "> 40 µM"}
{"molecule": "CC1=CC[C@H](C(C)C)C=C1 (racemic)", "IC50": "> 40 µM"}
{"molecule": "CCCCCCO", "IC50": "> 40 µM"}
{"molecule": "CCCCCCCO", "IC50": "> 40 µM"}
{"molecule": "CC/C=C\\CCO [(Z)-3-hexen-1-ol]", "IC50": "> 40 µM"}

Now for the molecule whose IC50 we want.
Asked: What is its IC50 for recombinant HparOBP14 (Holotrichia parallela)? Entry: CC1=CCC2CC1C2(C)C (stereo not drawn)
Given back: 38.5 µM

###

Attribute: pKi
- system tested: recombinant HparOBP14 (Holotrichia parallela)
- assay overview: biochemical
- Format: binding
- condition label: calculated from IC50: Ki = [IC50]/(1+[1-NPN]/K1-NPN); read-out: Ki
- Procedure: To determine the affinity of HparOBP14 to odorant volatiles, the fluorescent displacement binding assay was carried out. […] The fluorescence changes were recorded to get K1-NPN, the dissociation constant of the complex HparOBP14/1-NPN. The binding ability of HparOBP14 to the odorant compounds was determined by titrating the mixture of the protein and the 1-NPN (final concentration 2 μM of both) with each odorant compound at final concentrations ranging from 2 μM to 40 μM. […]
pKi: −log10 of the molar value. Where a name gives a salt, the structure may show the parent alone.

Look over these answered cases.
{"molecule": "CC/C=C\\CCOC=O [cis-3-hexenyl formate]", "measure name": "pKi", "observed result": "< 4.47"}
{"molecule": "CCCCCCCCCCCC=O", "measure name": "pKi", "observed result": "< 4.47"}
{"molecule": "CCCCCCCO", "measure name": "pKi", "observed result": "< 4.47"}

Asked: Please report the recorded pKi for `Cc1c[nH]c2ccccc12` .
Given back: 4.68

Asked: Which pKi is reported for this molecule? `CCCCCCCCC=O`
Given back: < 4.47

Asked: Given the entry `CCCCCCCC=O` , report its measured pKi.
Given back: < 4.47

Asked: Please give the measured pKi for this molecule: `C=C1CC/C=C(\C)CC[C@@H]2[C@@H]1CC2(C)C`
Given back: < 4.47

Asked: Field request: pKi | item: C=C1C2CCC(C2)C1(C)C (stereo not shown)
Given back: < 4.47

Asked: // returns reported pKi for input CC1=CCC2C(C1)C2(C)C (stereo not shown)
Given back: < 4.47

Asked: Given the entry CC/C=C\CCOC(C)=O [cis-3-hexenyl acetate] , report its measured pKi.
Given back: < 4.47

Asked: I would be grateful if you could share the reported pKi for `C=O` .
Given back: 4.53

Asked: What value of measured pKi is listed for `CO` ?
Given back: 4.56

Asked: What value of measured pKi is listed for CCCCC(CC)CO (stereo not shown) ?
Given back: < 4.47

Asked: For `CCCCCCO` , what is its reported pKi?
Given back: < 4.47

Asked: Which pKi is listed for CCCC(O)CC (stereo not shown) ?
Given back: < 4.47

Asked: Report pKi for `CCCCCCCCCC=O` please.
Given back: < 4.47

Reference source for all entries: paper PMC8151400
